- measured target: unphosphorylated c-KIT kinase (uKIT, Seq. ID no. 2) (Homo sapiens)
- Construct: uKit with N-terminal GST fusion used for
- Sequence (P10721 with tags, fused parts or gaps): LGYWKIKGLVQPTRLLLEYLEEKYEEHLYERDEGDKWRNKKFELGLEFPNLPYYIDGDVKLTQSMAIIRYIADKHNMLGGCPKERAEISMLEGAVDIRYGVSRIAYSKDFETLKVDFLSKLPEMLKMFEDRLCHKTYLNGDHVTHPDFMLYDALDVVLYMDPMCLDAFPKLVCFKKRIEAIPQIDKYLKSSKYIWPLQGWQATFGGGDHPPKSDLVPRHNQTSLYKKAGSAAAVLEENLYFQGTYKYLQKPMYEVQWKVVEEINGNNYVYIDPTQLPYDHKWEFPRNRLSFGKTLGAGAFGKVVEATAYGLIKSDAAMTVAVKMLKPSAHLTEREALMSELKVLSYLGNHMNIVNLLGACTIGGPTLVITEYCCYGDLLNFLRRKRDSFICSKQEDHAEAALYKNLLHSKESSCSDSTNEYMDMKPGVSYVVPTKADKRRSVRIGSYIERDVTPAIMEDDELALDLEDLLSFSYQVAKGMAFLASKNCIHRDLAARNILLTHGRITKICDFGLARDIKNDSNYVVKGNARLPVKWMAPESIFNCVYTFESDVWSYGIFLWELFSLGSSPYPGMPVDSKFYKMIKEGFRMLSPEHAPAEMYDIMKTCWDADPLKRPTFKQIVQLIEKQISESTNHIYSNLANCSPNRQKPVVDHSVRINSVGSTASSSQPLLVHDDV
- assay comment: uKit kinase assay (pyruvate kinase/lactate dehydrogenase coupled)
- condition summary: ATP 2000 μM
experimental endpoint: IC50

CC(=O)Nc1cc(Oc2cnc(NC(=O)NC(=O)C(C)(C)C)cc2C)ccn1    100 to 1000 nM
COC1(C(=O)NC(=O)Nc2ccc(Oc3ccnc(NC(=O)C4CCN(C)CC4)c3)cn2)CC1    > 1000 nM
CN(C)C(=O)Nc1cc(Oc2ccc(NC(=O)NC(=O)C3(C)CC3)nc2)ccn1    10 to 100 nM

Now for a further compound.
[Q] Give reported IC50 value for CC(C)(C)C(=O)NC(=O)Nc1ccc(Oc2ccnc(C(=O)NC3CC3)c2)cn1
[A] > 1000 nM

The values you see were collected from patent US9309224B2.
